Would you kindly list RSV Neutralization - IC50 for each of these binders?
Molecular target: fusion glycoprotein of the RSV used in the neutralization assay of Example 1 (respiratory syncytial virus (strain not stated))
Experiment: cell-based or functional assay
Field: numeric (ng/mL). Do not append units.

Using the record for MPK203 (antibody, V domains shown) VH: EVQLVQSGPQVKKPGAAVKVSCKASGFTFTDTTVNWVRQTRGQRLEWMGWIAVGSGTTNYAQKFRDRVTISRDTSTDTAYMELGGLTHDDTAVYYCTTEASRTWFVQTSPFVGFDPWGQGTLVTVSS VL: EIVLTQSPGTLSLSPGERATLSCRASQSVSSSYFAWYQQKPGQTPRVLIYGASNRAPDIPDRFSGSGSGTDFILTISRLEPEDFAIYYCQHYGSSPTFGQGTKVEIK , report its RSV Neutralization - IC50. 2

Now consider MPK144 (antibody, V domains shown) VH: EVQLVESGGGLVRPGGSLRLSCAASGFTFTGYYMMWIRQAPGKGLEWISDISSSSSYTNYADSVKGRFAISRDNAQNTLYLQMNSLRAEDTAVYYCATEQVPSPGPFDLWGQGTLVTVSS VL: QSVLTQPPSVSGAPGQRVTISCTGSSSNFGAGYDVHWYQQFPGTSPKLLIYRNTNRPSGVPDRFSGSKSGTSASLAITGLQAEDEADYYCQSYDRSLTGWVFGGGTKLTVL and answer again. 8.2
